Catalogue of % bound readings, one per entry.
study.system: T1, rat collagen (acid soluble, type I, rat tail, Upstate 08-115) (rat, UniProt P02454 152-1207; P02466 86-1125)
T1 construct: also called dried rat collagen; insoluble rat collagen
T1 sequence (P02454 152-1207 limits assumed, chain 1 of 2): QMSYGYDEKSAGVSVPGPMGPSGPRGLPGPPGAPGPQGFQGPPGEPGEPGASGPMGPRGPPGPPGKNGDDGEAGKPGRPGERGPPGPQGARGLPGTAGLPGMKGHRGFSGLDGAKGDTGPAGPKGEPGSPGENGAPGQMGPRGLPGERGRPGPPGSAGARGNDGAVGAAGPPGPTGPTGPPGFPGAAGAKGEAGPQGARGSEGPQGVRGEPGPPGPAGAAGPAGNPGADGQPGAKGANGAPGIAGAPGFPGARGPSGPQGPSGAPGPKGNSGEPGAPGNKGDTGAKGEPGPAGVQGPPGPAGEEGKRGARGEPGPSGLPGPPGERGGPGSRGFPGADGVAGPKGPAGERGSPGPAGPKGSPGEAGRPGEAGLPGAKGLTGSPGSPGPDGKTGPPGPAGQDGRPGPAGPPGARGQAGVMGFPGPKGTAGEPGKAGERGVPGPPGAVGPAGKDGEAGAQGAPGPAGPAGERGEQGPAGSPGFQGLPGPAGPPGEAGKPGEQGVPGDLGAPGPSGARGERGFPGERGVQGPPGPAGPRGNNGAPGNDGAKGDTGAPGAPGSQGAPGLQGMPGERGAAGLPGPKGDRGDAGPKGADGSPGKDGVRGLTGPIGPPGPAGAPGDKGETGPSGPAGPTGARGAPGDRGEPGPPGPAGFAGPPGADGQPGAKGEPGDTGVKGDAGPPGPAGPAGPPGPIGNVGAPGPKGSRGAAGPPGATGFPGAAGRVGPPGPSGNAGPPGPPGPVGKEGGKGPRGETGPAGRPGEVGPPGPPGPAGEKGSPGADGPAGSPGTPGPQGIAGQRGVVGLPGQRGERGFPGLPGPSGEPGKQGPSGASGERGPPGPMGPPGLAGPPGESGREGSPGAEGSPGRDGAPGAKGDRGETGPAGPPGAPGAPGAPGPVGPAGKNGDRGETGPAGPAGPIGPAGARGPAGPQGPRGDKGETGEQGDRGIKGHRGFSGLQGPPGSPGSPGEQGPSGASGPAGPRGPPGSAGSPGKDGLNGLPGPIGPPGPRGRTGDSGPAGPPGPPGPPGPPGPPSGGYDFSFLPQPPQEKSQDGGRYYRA
T1 sequence (P02466 86-1125 limits assumed, chain 2 of 2): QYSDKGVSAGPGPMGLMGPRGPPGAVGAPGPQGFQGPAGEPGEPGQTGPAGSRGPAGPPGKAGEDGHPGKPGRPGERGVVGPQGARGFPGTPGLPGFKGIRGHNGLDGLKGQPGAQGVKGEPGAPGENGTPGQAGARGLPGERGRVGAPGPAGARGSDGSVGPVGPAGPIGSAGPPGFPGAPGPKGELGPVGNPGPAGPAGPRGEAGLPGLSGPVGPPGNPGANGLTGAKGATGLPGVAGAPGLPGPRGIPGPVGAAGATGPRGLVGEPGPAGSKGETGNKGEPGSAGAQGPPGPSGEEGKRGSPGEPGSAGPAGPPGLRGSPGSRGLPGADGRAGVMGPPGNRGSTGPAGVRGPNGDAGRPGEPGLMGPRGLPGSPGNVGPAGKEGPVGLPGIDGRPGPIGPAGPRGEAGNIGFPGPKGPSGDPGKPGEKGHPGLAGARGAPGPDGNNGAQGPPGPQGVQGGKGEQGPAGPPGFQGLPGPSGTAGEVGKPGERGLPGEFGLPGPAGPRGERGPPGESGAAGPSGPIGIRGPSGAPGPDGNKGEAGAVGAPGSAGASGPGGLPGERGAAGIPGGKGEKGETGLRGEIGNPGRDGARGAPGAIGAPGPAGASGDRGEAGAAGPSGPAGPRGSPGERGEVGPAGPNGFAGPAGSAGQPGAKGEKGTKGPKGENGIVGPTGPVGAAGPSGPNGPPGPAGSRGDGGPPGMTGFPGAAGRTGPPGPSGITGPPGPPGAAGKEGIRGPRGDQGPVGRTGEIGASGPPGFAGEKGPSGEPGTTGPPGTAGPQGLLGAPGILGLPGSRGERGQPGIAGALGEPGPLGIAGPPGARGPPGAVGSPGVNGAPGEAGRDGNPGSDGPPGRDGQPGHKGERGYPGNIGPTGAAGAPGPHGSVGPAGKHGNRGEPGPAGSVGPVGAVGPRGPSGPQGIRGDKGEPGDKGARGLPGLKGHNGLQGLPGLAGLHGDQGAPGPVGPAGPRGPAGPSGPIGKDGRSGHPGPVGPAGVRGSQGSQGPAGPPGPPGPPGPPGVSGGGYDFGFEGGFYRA
method: dried collagen assay
Bridge positions count the residues as written; N and C are the ends. Square brackets hold non-standard residues; d marks the D form. Ends that are not written are not given here.
Reply with just the number (in %).

Before answering, review these 3 worked examples.
>  <binder>
YHACY[dQ]AGCWIW (disulfide 4-9 (inferred)) [SEQ ID NO: 157]

>  <parameter>
% bound

>  <assay.result>
35

$$$$
>  <binder>
YHAC[dY]QAGCWIW (disulfide 4-9 (inferred)) [SEQ ID NO: 156]

>  <parameter>
% bound

>  <assay.result>
48

$$$$
>  <binder>
YH[dA]CYQAGCWIW (disulfide 4-9 (inferred)) [SEQ ID NO: 154]

>  <parameter>
% bound

>  <assay.result>
21

$$$$

Inquiry: Please give the measured % bound for this binder: YHACYQ[dA]GCWIW (disulfide 4-9 (inferred)) [SEQ ID NO: 158]
Reply text: 66
